test system: Mtb strain H37Rv; assay: MIC determination against Mtb H37Rv in different media; format: cell-based, Mycobacterium tuberculosis; conditions: Mycobacterium tuberculosis, H37RV, Mtb H37Rv in GAST (Table 2); read-out: MIC GAST
quantity_kind: MIC

The measured MIC associated with CC(NC(=O)c1nc(Cc2ccccc2C(F)(F)F)n(C)c(=O)c1O)c1ccccc1 (stereo not shown) reads > 100 µM

The measured MIC associated with "COc1c(C(=O)NCc2ccccc2)nc(Cc2ccccc2C(F)(F)F)n(C)c1=O" reads > 100 µM

The measured MIC associated with "CN(Cc1ccccc1)C(=O)c1nc(Cc2ccccc2C(F)(F)F)n(C)c(=O)c1O" reads > 100 µM

The measured MIC associated with "O=C(NCc1ccccc1)c1nc(Cc2ccccc2C(F)(F)F)[nH]c(=O)c1O" reads > 100 µM
